System: IGR37-GP cells (Dabrafenib-resistant)
assay.notes: Kinase inhibitor library screening, PrestoBlue cell viability, 1 or 10 μM, 72 h
condition.parameters: IGR37 GP, 10μΜ, 72 h

| molecule | cell viability, IGR37 GP, 10μΜ / % |
| --- | --- |
| C#Cc1cccc(Nc2ncnc3cc(OCCOC)c(OCCO)cc23)c1 [OSI-420 (Desmethyl Erlotinib)] | 81.4 |
| CNC(=O)c1c(F)cccc1Nc1nc(Nc2cc3c(cc2OC)CCN3C(=O)CN(C)C)nc2[nH]ccc12 [GSK1838705A, reference compound] | 2 |
| COc1cc2ncnc(Nc3cccc(Br)c3)c2cc1OC.Cl [PD153035 HCl] | 73.7 |
| O=C(NOCC(O)CO)c1cc(Br)c(F)c(F)c1Nc1ccc(I)cc1F (stereo not shown) | 66.4 |
| CNC(=O)c1ccccc1Nc1nc(Nc2ccc(N3CCOCC3)cc2OC)ncc1Cl | 3.7 |
| CC(C)(C)c1cc(/C=C(\C#N)C(N)=S)cc(C(C)(C)C)c1O | 60.1 |
| C[C@@H]1CCN(C(=O)CC#N)C[C@@H]1N(C)c1ncnc2[nH]ccc12.O=C(O)CC(O)(CC(=O)O)C(=O)O [Tofacitinib citrate (CP-690550 citrate)] | 94.9 |

---

Tested on: 501Mel-XP cells (Vemurafenib-resistant)
assay.notes: Kinase inhibitor library screening, PrestoBlue cell viability, 1 or 10 μM, 72 h
condition.parameters: 501Mel XP; 10μΜ; 72 h; in %
Measured cell viability, 501Mel XP, 10μΜ, listed per entry for reference.
readout.type: cell viability, 501Mel XP, 10μΜ

| compound | observed.value |
| --- | --- |
| CC(O)C(=O)O.CC(O)C(=O)O.CN1CCN(c2ccc3nc(-c4c(N)c5c(F)cccc5[nH]c4=O)[nH]c3c2)CC1 | -0.0481 |
| CC(=O)Nc1cccc(-n2c(=O)n(C3CC3)c(=O)c3c(Nc4ccc(I)cc4F)n(C)c(=O)c(C)c32)c1 | 62.1 |
| C=CC(=O)Nc1cccc(Sc2nc(Nc3ccc(N4CCN(C)CC4)cc3)ncc2Cl)c1 | 0.0442 |
| Nc1ncnc2c1c(-c1cccc(OCc3ccccc3)c1)cn2C1CC(CN2CCCC2)C1 (stereo not shown) | -0.346 |
| CCO.N#CC(=C(/N)Sc1ccccc1N)/C(C#N)=C(\N)Sc1ccccc1N | 62.2 |
| Cc1cnc(Nc2ccc(OCCN3CCCC3)cc2)nc1Nc1cccc(S(=O)(=O)NC(C)(C)C)c1 [TG101348 (SAR302503)] | -0.1 |
| CCOc1cc2ncc(C#N)c(Nc3ccc(F)c(Cl)c3)c2cc1NC(=O)/C=C/CN(C)C [Pelitinib (EKB-569)] | 91.9 |

---

Tested on: 501Mel-XP cells (Vemurafenib-resistant)
assay.notes: Kinase inhibitor library screening, PrestoBlue cell viability, 1 or 10 μM, 72 h
condition.parameters: 501Mel XP; 10μΜ; 72 h; in %

| molecule | cell viability, 501Mel XP, 10μΜ |
| --- | --- |
| C[C@@H]1CCN(C(=O)CC#N)C[C@@H]1N(C)c1ncnc2[nH]ccc12.O=C(O)CC(O)(CC(=O)O)C(=O)O [Tofacitinib citrate (CP-690550 citrate)] | 90.7 |
| CCC[C@H](NC(=O)/C(C#N)=C/c1cccc(Br)n1)c1ccccc1 [WP1130, reference compound] | -0.185 |
| COc1cc2c(N3CCN(C(=O)Nc4ccc(OC(C)C)cc4)CC3)ncnc2cc1OCCCN1CCCCC1 | 71.2 |
| CS(=O)(=O)CCNCc1ccc(-c2ccc3ncnc(Nc4ccc(OCc5cccc(F)c5)c(Cl)c4)c3c2)o1.Cc1ccc(S(=O)(=O)O)cc1.Cc1ccc(S(=O)(=O)O)cc1 [Lapatinib Ditosylate (Tykerb)] | -0.129 |
| CCc1cc(Nc2nccc(-c3c(-c4ccc(OC)c(C(=O)Nc5c(F)cccc5F)c4)nc4ccccn34)n2)c(OC)cc1N1CCC(N2CCN(S(C)(=O)=O)CC2)CC1 [GSK1904529A] | 82.3 |
| Nc1cccc(-c2cc3c(Oc4cccc(O)c4)ncnc3[nH]2)c1 | 26.6 |
